Hi there, I'd appreciate the recorded inhibition for every entry that follows.
System: Plasma
Test: Antioxidant activity in human plasma assessed as inhibition of H2O2/[…]-induced lipid peroxidation at 10 uM incubated for 30 mins by TBARS assay
Assay type: functional, cell-free
One number for each entry, in %.

Observe how each entry below is paired with its result.
compound	target system	units label	inhibition
O=C1CCc2ccc(O)c(c2)-c2cc(ccc2O)C[C@@H](O)[C@H](O)C1	Plasma	%	11.2
COc1c2cc(c(OC)c1O)Oc1ccc(cc1)[C@@H](O)C[C@H](O)/C=C/C=C/2	Plasma	%	25.5
O=C1CCc2ccc(O)c(c2)-c2cc(ccc2O)C[C@H](O[C@@H]2O[C@H](CO)[C@@H](O)[C@H](O)[C@H]2O)C[C@@H]1O	Plasma	%	4.8

Look up inhibition for the entries below, preserving their order.
1. O=C1C[C@@H](O)Cc2ccc(O)c(c2)-c2cc(ccc2O)C[C@H](O)[C@H]1O
2. Oc1ccc2cc1-c1cc(ccc1O)C[C@H](O)[C@@H](O)[C@@H](O)C[C@@H](O)C2
3. Oc1ccc2cc1-c1cc(ccc1O)C[C@H](O)[C@H](O)C(O)[C@@H](O)[C@H](O)C2 (stereo not given in full)
4. COc1cc(/C=C/C(=O)CC(=O)/C=C/c2ccc(O)c(OC)c2)ccc1O
5. O=C1[C@@H](O)Cc2ccc(O)c(c2)-c2cc(ccc2O)C[C@@H](O)[C@H](O)[C@H]1O
6. O=C1CCc2ccc(O)c(c2)-c2cc(ccc2O)C[C@H](O)C[C@H]1O
7. COc1c2cc(c(OC)c1O)Oc1ccc(cc1)[C@@H](O)C[C@H](O)CC/C=C/2

Result:
1: 4.2; 2: 14.4; 3: 10.4; 4: 23.2; 5: 23.9; 6: 34.1; 7: 4
